# Assay info: Safety index, ratio compound EC50 to olaparib EC50 for BRCA1 deficient human UWB1.289 cells
# Format: ADME
# Test context: BRCA1-deficient UWB1.289 cells, read-out: Ratio EC50
Parameter: selectivity ratio. Scope: all listed entries.

Request: Supply reported selectivity ratio belonging to this compound: `CC(C)(C)OC(=O)N1CCC2(CC1)CCN(C(=O)c1cc(Cc3n[nH]c(=O)c4ccccc34)ccc1F)CC2`
Response: 20 to 40

* * *

# System: MEF
# Assay info: Cytotoxicity against mouse PARP1 deficient MEF cells assessed as reduction in cell viability after 4 to 7 days by cell-titer glo assay
# Type: cell-based
Parameter: EC50. Scope: all listed entries.
API: value field is a number in µM; no unit string.

Guide cases for EC50, answers given:
>  <Compound>
CC(C)(C)OC(=O)N1CCC2(CC1)CN(C(=O)c1cc(Cc3n[nH]c(=O)c4ccccc34)ccc1F)C2

>  <EC50 [µM]>
49.2

$$$$
>  <Compound>
O=C(c1cc(Cc2n[nH]c(=O)c3ccccc23)ccc1F)N1CCC2(CCCCC2)C1

>  <EC50 [µM]>
51.6

$$$$
>  <Compound>
CC(C)(C)OC(=O)N1CCC2(CC1)CCN(C(=O)c1cc(Cc3n[nH]c(=O)c4ccccc34)ccc1F)CC2

>  <EC50 [µM]>
43.4

$$$$
>  <Compound>
O=C(c1cc(Cc2n[nH]c(=O)c3ccccc23)ccc1F)N1CCC2(CC1)CCN(C(=O)C1CC1)CC2

>  <EC50 [µM]>
49.7

$$$$
>  <Compound>
O=C(c1cc(Cc2n[nH]c(=O)c3ccccc23)ccc1F)N1CC2(CCCCC2)C1

>  <EC50 [µM]>
48.3

$$$$

Request: Supply reported EC50 belonging to this compound: `CC(C)(C)OC(=O)N1CCC2(CC1)CCN(C(=O)c1cc(Cc3n[nH]c(=O)c4ccccc34)ccc1F)C2`
Response: 45.9

Request: Supply reported EC50 belonging to this compound: CC(C)(C)OC(=O)N1CCC2(CCN(C(=O)c3cc(Cc4n[nH]c(=O)c5ccccc45)ccc3F)C2)C1 (configuration not stated)
Response: 46.4

* * *

Parameter: pIC50. Scope: all listed entries.
# Target of assay: Poly [ADP-ribose] polymerase 1 (Homo sapiens, UniProt P09874)
# Sequence (P09874 whole entry): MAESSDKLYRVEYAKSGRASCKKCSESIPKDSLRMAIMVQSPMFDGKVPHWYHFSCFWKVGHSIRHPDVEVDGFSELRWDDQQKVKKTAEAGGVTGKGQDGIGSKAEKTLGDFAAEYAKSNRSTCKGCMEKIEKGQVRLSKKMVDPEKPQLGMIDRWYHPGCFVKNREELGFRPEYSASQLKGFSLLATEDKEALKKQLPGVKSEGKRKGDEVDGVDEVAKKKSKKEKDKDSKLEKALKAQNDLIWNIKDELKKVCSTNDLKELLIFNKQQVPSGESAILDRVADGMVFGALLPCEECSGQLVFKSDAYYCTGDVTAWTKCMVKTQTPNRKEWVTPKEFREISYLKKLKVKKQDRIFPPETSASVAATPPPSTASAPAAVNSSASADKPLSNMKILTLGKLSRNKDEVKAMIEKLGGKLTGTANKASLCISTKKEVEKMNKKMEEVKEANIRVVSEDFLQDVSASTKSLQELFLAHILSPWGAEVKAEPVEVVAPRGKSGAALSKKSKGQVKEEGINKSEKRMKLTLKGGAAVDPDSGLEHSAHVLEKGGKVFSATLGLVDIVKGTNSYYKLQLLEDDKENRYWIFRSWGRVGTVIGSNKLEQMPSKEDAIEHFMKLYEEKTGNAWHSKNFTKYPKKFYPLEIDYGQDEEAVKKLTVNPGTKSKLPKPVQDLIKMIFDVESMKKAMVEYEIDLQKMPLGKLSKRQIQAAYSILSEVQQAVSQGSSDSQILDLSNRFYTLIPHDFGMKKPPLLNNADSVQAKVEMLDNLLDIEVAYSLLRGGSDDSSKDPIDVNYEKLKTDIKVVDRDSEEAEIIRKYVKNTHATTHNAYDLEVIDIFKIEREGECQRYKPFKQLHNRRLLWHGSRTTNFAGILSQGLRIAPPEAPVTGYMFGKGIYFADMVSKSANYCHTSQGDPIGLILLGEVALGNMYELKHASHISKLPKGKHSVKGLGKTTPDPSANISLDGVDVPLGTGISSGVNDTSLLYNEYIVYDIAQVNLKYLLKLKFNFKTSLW
# Assay info: Binding affinity to PARP1 in human OVCAR8 cells assessed as reduction in [125I]-KX1 binding by gamma counting analysis
API: returns pIC50 as number; meaning -log10 of concentration in mol/L.

>  <Compound>
O=C(c1cc(Cc2n[nH]c(=O)c3ccccc23)ccc1F)N1CC2(CCC2)C1

>  <Observed measurement>
7.47

$$$$
>  <Compound>
O=C(c1cc(Cc2n[nH]c(=O)c3ccccc23)ccc1F)N1CCC12CCCCC2

>  <Observed measurement>
6.55

$$$$

Request: Supply reported pIC50 belonging to this compound: COC1CCN(C(=O)c2cc(Cc3n[nH]c(=O)c4ccccc34)ccc2F)CC1 [AZD2461]
Response: 8.77

Request: Supply reported pIC50 belonging to this compound: `O=C(c1cc(Cc2n[nH]c(=O)c3ccccc23)ccc1F)N1CCC12CNC2`
Response: 6.28

Request: Supply reported pIC50 belonging to this compound: O=C(c1cc(Cc2n[nH]c(=O)c3ccccc23)ccc1F)N1CCC2(CCN(C(=O)C3CC3)C2)C1 (stereo unspecified)
Response: 5.59

Request: Supply reported pIC50 belonging to this compound: `O=C(c1cc(Cc2n[nH]c(=O)c3ccccc23)ccc1F)N1CCC2(CCCC2)C1`
Response: 7.29

Source listed as ChEMBL document CHEMBL4138313.
